# EC50 values compiled below
- Subject Of Test: T1, Cynomolgus monkey CD98 expressed on stably transfected 3T12 cells (cynomolgus monkey)
- T1 construct: whole, on cells; also called cyCD98
- Assay Details: flow cytometry, 3T12 cells expressing cynomolgus CD98
// units = nM; emit number, no label

Here's what some known entries look like.
Recombinant anti-CD98 chimeric antibody chAb9 (antibody, human IgG1, V domains shown) VH: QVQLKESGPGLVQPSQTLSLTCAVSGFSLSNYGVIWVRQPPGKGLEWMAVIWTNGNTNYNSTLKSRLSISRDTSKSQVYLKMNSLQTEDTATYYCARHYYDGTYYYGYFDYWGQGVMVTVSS VL: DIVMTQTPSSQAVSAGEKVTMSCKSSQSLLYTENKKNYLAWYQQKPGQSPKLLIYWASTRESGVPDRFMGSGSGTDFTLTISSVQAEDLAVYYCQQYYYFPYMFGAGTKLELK ... 11.1
Recombinant anti-CD98 chimeric antibody chAb7 (antibody, human IgG1, V domains shown) VH: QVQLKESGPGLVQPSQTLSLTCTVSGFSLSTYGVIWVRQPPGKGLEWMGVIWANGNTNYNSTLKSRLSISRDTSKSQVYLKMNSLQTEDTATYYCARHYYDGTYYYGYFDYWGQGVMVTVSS VL: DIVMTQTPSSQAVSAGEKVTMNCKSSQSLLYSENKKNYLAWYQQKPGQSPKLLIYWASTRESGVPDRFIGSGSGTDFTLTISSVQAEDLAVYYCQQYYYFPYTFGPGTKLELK ... 6.49

Looking up Recombinant anti-CD98 chimeric antibody chAb11 (antibody, human IgG1, V domains shown) VH: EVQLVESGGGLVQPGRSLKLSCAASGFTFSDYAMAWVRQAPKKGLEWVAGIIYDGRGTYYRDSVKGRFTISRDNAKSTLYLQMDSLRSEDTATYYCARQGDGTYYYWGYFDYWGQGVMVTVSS VL: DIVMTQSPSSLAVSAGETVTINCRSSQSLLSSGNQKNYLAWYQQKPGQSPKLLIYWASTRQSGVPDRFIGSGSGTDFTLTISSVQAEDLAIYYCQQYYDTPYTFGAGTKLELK , I see its EC50 listed as 16.9
